Test system: NCI-H322M
Assay: relative viability (nuclei count vs DMSO), 5 days (fraction); higher = more cells survive
Details: first compound 0.1581 µM
Experimental Endpoint: relative viability

• CC1(C)CCC(c2ccc(Cl)cc2)=C(CN2CCN(c3ccc(C(=O)NS(=O)(=O)c4ccc(N[C@H](CCN5CCOCC5)CSc5ccccc5)c(S(=O)(=O)C(F)(F)F)c4)cc3)CC2)C1 [Navitoclax] + NC(=O)Nc1cc(-c2cccc(F)c2)sc1C(=O)N[C@H]1CCCNC1 [AZD7762] (partner 0.2 µM) = 0.587
• CC1(C)CCC(c2ccc(Cl)cc2)=C(CN2CCN(c3ccc(C(=O)NS(=O)(=O)c4ccc(N[C@H](CCN5CCOCC5)CSc5ccccc5)c(S(=O)(=O)C(F)(F)F)c4)cc3)CC2)C1 [Navitoclax] + N=C(N)NC(=N)NCCc1ccccc1 [Phenformin] (partner 250 µM) = 0.848
• CC1(C)CCC(c2ccc(Cl)cc2)=C(CN2CCN(c3ccc(C(=O)NS(=O)(=O)c4ccc(N[C@H](CCN5CCOCC5)CSc5ccccc5)c(S(=O)(=O)C(F)(F)F)c4)cc3)CC2)C1 [Navitoclax] + Nc1nc2[nH]cc(CCc3ccc(C(=O)N[C@@H](CCC(=O)O)C(=O)O)cc3)c2c(=O)[nH]1 [Pemetrexed] (partner 0.2 µM) = 0.651

---

Tested on: LC-2-ad
Assay: relative viability (nuclei count vs DMSO), 5 days (fraction); higher = more cells survive
Conditions: first compound 1 µM
Below is a list of entries, each paired with its recorded relative viability value.
Experimental Endpoint: relative viability

- NC(=O)Nc1cc(-c2cccc(F)c2)sc1C(=O)N[C@H]1CCCNC1 [AZD7762] + C[C@@H](Oc1cc(-c2cnn(C3CCNCC3)c2)cnc1N)c1c(Cl)ccc(F)c1Cl [Crizotinib] (partner 1 µM): 0.295
- NC(=O)Nc1cc(-c2cccc(F)c2)sc1C(=O)N[C@H]1CCCNC1 [AZD7762] + Cc1nc(Nc2ncc(C(=O)Nc3c(C)cccc3Cl)s2)cc(N2CCN(CCO)CC2)n1 [Dasatinib] (partner 0.075 µM): 0.377
- NC(=O)Nc1cc(-c2cccc(F)c2)sc1C(=O)N[C@H]1CCCNC1 [AZD7762] + C[C@]1(O)C[C@@H](c2nc(-c3ccc4ccc(-c5ccccc5)nc4c3)c3c(N)nccn32)C1 [Linsitinib] (partner 1 µM): 0.437
- NC(=O)Nc1cc(-c2cccc(F)c2)sc1C(=O)N[C@H]1CCCNC1 [AZD7762] + CC1(C)CCC(c2ccc(Cl)cc2)=C(CN2CCN(c3ccc(C(=O)NS(=O)(=O)c4ccc(N[C@H](CCN5CCOCC5)CSc5ccccc5)c(S(=O)(=O)C(F)(F)F)c4)cc3)CC2)C1 [Navitoclax] (partner 0.5 µM): 0.309
- NC(=O)Nc1cc(-c2cccc(F)c2)sc1C(=O)N[C@H]1CCCNC1 [AZD7762] + CC(=O)c1c(C)c2cnc(Nc3ccc(N4CCNCC4)cn3)nc2n(C2CCCC2)c1=O [Palbociclib] (partner 0.5 µM): 0.367
- NC(=O)Nc1cc(-c2cccc(F)c2)sc1C(=O)N[C@H]1CCCNC1 [AZD7762] + COc1cccc2cc(-c3nc([C@H]4CC[C@H](C(=O)O)CC4)n4ncnc(N)c34)[nH]c12 [OSI-027] (partner 0.5 µM): 0.543

---

Test system: NCI-H838
Assay: relative viability (nuclei count vs DMSO), 5 days (fraction); higher = more cells survive
Conditions: first compound 2.53 µM
Experimental Endpoint: relative viability

* C=C1C(=O)O[C@@H](CCCCCCCC)[C@@H]1C(=O)O [C-75] + Nc1nc2[nH]cc(CCc3ccc(C(=O)N[C@@H](CCC(=O)O)C(=O)O)cc3)c2c(=O)[nH]1 [Pemetrexed] (partner 0.2 µM) | 0.18
* C=C1C(=O)O[C@@H](CCCCCCCC)[C@@H]1C(=O)O [C-75] + CC(=O)Nc1cccc(-n2c(=O)n(C3CC3)c(=O)c3c(Nc4ccc(I)cc4F)n(C)c(=O)c(C)c32)c1 [Trametinib] (partner 0.02 µM) | 0.422
* C=C1C(=O)O[C@@H](CCCCCCCC)[C@@H]1C(=O)O [C-75] + C[C@]1(O)C[C@@H](c2nc(-c3ccc4ccc(-c5ccccc5)nc4c3)c3c(N)nccn32)C1 [Linsitinib] (partner 1 µM) | 0.943
* C=C1C(=O)O[C@@H](CCCCCCCC)[C@@H]1C(=O)O [C-75] + COc1cc2c(Oc3ccc(NC(=O)C4(C(=O)Nc5ccc(F)cc5)CC4)cc3F)ccnc2cc1OCCCN1CCOCC1 [Foretinib] (partner 0.25 µM) | 0.861
* C=C1C(=O)O[C@@H](CCCCCCCC)[C@@H]1C(=O)O [C-75] + CS(=O)(=O)CCNCc1ccc(-c2ccc3ncnc(Nc4ccc(OCc5cccc(F)c5)c(Cl)c4)c3c2)o1 [Lapatinib] (partner 2 µM) | 0.803

---

Test system: LU99A
Assay: relative viability (nuclei count vs DMSO), 5 days (fraction); higher = more cells survive
Conditions: first compound 0.01 µM
Rule: relative viability below 0.5 gives 1. Equal to or above 0.5 gives -1.

- NC(=O)Nc1cc(-c2cccc(F)c2)sc1C(=O)N[C@H]1CCCNC1 [AZD7762] + CC(=O)Nc1cccc(-n2c(=O)n(C3CC3)c(=O)c3c(Nc4ccc(I)cc4F)n(C)c(=O)c(C)c32)c1 [Trametinib] (partner 0.02 µM): -1
- NC(=O)Nc1cc(-c2cccc(F)c2)sc1C(=O)N[C@H]1CCCNC1 [AZD7762] + O=C(CCCCCCC(=O)Nc1ccccc1)NO [Vorinostat] (partner 1 µM): 1
- NC(=O)Nc1cc(-c2cccc(F)c2)sc1C(=O)N[C@H]1CCCNC1 [AZD7762] + Nc1nc2[nH]cc(CCc3ccc(C(=O)N[C@@H](CCC(=O)O)C(=O)O)cc3)c2c(=O)[nH]1 [Pemetrexed] (partner 0.2 µM): 1
- NC(=O)Nc1cc(-c2cccc(F)c2)sc1C(=O)N[C@H]1CCCNC1 [AZD7762] + CCNC(=O)c1noc(-c2cc(C(C)C)c(O)cc2O)c1-c1ccc(CN2CCOCC2)cc1 [Luminespib] (partner 0.01 µM): 1
- NC(=O)Nc1cc(-c2cccc(F)c2)sc1C(=O)N[C@H]1CCCNC1 [AZD7762] + Cc1nc(Nc2ncc(C(=O)Nc3c(C)cccc3Cl)s2)cc(N2CCN(CCO)CC2)n1 [Dasatinib] (partner 0.075 µM): -1

---

Below is a list of entries, each paired with its recorded relative viability value.
System: NCI-H1944
Assay: relative viability (nuclei count vs DMSO), 5 days (fraction); higher = more cells survive
Conditions: first compound 0.8 µM
Experimental Endpoint: relative viability

• Oc1nc(-c2ccc(C(F)(F)F)cc2)nc2c1CSCC2 [XAV939] + COc1cccc2cc(-c3nc([C@H]4CC[C@H](C(=O)O)CC4)n4ncnc(N)c34)[nH]c12 [OSI-027] (partner 0.5 µM) = 0.403
• C=C1C(=O)O[C@@H](CCCCCCCC)[C@@H]1C(=O)O [C-75] + Cc1nc(Nc2ncc(C(=O)Nc3c(C)cccc3Cl)s2)cc(N2CCN(CCO)CC2)n1 [Dasatinib] (partner 0.075 µM) = 0.193
• C=C1C(=O)O[C@@H](CCCCCCCC)[C@@H]1C(=O)O [C-75] + COc1cc2c(Oc3ccc(NC(=O)C4(C(=O)Nc5ccc(F)cc5)CC4)cc3F)ccnc2cc1OCCCN1CCOCC1 [Foretinib] (partner 0.25 µM) = 0.829
• Oc1nc(-c2ccc(C(F)(F)F)cc2)nc2c1CSCC2 [XAV939] + Cc1cc(Nc2cc(N3CCN(C)CC3)nc(Sc3ccc(NC(=O)C4CC4)cc3)n2)n[nH]1 [Tozasertib] (partner 0.1 µM) = 0.235
• C=C1C(=O)O[C@@H](CCCCCCCC)[C@@H]1C(=O)O [C-75] + NC(=O)Nc1cc(-c2cccc(F)c2)sc1C(=O)N[C@H]1CCCNC1 [AZD7762] (partner 0.2 µM) = 0.381
• Oc1nc(-c2ccc(C(F)(F)F)cc2)nc2c1CSCC2 [XAV939] + O=C(c1cc(Cc2n[nH]c(=O)c3ccccc23)ccc1F)N1CCN(C(=O)C2CC2)CC1 [Olaparib] (partner 8 µM) = 0.365
• Oc1nc(-c2ccc(C(F)(F)F)cc2)nc2c1CSCC2 [XAV939] + Cc1nc(Nc2ncc(C(=O)Nc3c(C)cccc3Cl)s2)cc(N2CCN(CCO)CC2)n1 [Dasatinib] (partner 0.075 µM) = 0.226
• Oc1nc(-c2ccc(C(F)(F)F)cc2)nc2c1CSCC2 [XAV939] + Cc1nc(NC(=O)N2CCC[C@H]2C(N)=O)sc1-c1ccnc(C(C)(C)C(F)(F)F)c1 [Alpelisib] (partner 2 µM) = 0.751
• C=C1C(=O)O[C@@H](CCCCCCCC)[C@@H]1C(=O)O [C-75] + CC(=O)Nc1cccc(-n2c(=O)n(C3CC3)c(=O)c3c(Nc4ccc(I)cc4F)n(C)c(=O)c(C)c32)c1 [Trametinib] (partner 0.02 µM) = 0.361
• C=C1C(=O)O[C@@H](CCCCCCCC)[C@@H]1C(=O)O [C-75] + CCNC(=O)c1noc(-c2cc(C(C)C)c(O)cc2O)c1-c1ccc(CN2CCOCC2)cc1 [Luminespib] (partner 0.01 µM) = 0.684
• Oc1nc(-c2ccc(C(F)(F)F)cc2)nc2c1CSCC2 [XAV939] + CC1(C)CCC(c2ccc(Cl)cc2)=C(CN2CCN(c3ccc(C(=O)NS(=O)(=O)c4ccc(N[C@H](CCN5CCOCC5)CSc5ccccc5)c(S(=O)(=O)C(F)(F)F)c4)cc3)CC2)C1 [Navitoclax] (partner 0.5 µM) = 1.01
• Oc1nc(-c2ccc(C(F)(F)F)cc2)nc2c1CSCC2 [XAV939] + C[C@]1(O)C[C@@H](c2nc(-c3ccc4ccc(-c5ccccc5)nc4c3)c3c(N)nccn32)C1 [Linsitinib] (partner 1 µM) = 1.24
